- System: Streptococcus pneumoniae Stpn_280-962
- assayComment: MIC, broth microdilution (NCCLS)
- Type: cell-based
- measurementConditions: Table 10, Strain ID O (Table 8): Streptococcus pneumoniae Stpn_280-962
reportedMetric: MIC

molecule | assayedSystem | reportedMetric | testResult
CC[C@H]1OC(=O)[C@H](C)C(=O)[C@H](C)[C@@H](OC2O[C@H](C)C[C@H](N(C)C)[C@H]2O)[C@@](C)(OC)C[C@@H](C)C(=O)[C@H](C)[C@H]2N(CCCCn3cnc(-c4ccc(OC)nc4)c3)C(=O)O[C@]12CC (some centres unmarked) | Streptococcus pneumoniae Stpn_280-962 | MIC | =0.05
C=C[C@]12OC(=O)N(CCCCn3cnc(-c4ccc(C)nc4)c3)[C@@H]1[C@@H](C)C(=O)[C@H](C)C[C@](C)(OC)[C@H](OC1O[C@H](C)C[C@H](N(C)C)[C@H]1O)[C@@H](C)C(=O)[C@@H](C)C(=O)O[C@@H]2CC (some centres unmarked) | Streptococcus pneumoniae Stpn_280-962 | MIC | =0.05
C=C[C@]12OC(=O)N(CCCCn3cc(-c4ccc(OC)nc4)nc3C)[C@@H]1[C@@H](C)C(=O)[C@H](C)C[C@](C)(OC)[C@H](OC1O[C@H](C)C[C@H](N(C)C)[C@H]1O)[C@@H](C)C(=O)[C@@H](C)C(=O)O[C@@H]2CC (some centres unmarked) | Streptococcus pneumoniae Stpn_280-962 | MIC | =0.05
CC[C@H]1OC(=O)[C@H](C)C(=O)[C@H](C)[C@@H](OC2O[C@H](C)C[C@H](N(C)C)[C@H]2O)[C@@](C)(OC)C[C@@H](C)C(=O)[C@H](C)[C@H]2N(CCCCn3cnc(-c4ccc(C)nc4)c3)C(=O)O[C@]12CC (some centres unmarked) | Streptococcus pneumoniae Stpn_280-962 | MIC | =0.05
C=C[C@]12OC(=O)N(CCCCn3cnc(-c4ccc(OC)nc4)c3C)[C@@H]1[C@@H](C)C(=O)[C@H](C)C[C@](C)(OC)[C@H](OC1O[C@H](C)C[C@H](N(C)C)[C@H]1O)[C@@H](C)C(=O)[C@@H](C)C(=O)O[C@@H]2CC (some centres unmarked) | Streptococcus pneumoniae Stpn_280-962 | MIC | =0.05

Please list MIC recorded for the molecule C=C[C@]12OC(=O)N(CCCCn3cnc(-c4ccc(Cl)nc4)c3)[C@@H]1[C@@H](C)C(=O)[C@H](C)C[C@](C)(OC)[C@H](OC1O[C@H](C)C[C@H](N(C)C)[C@H]1O)[C@@H](C)C(=O)[C@@H](C)C(=O)O[C@@H]2CC (some centres unmarked)
=0.05

Please list MIC recorded for the molecule C=C[C@]12OC(=O)N(CCCCn3cnc(-c4ccc(OCC)nc4)c3)[C@@H]1[C@@H](C)C(=O)[C@H](C)C[C@](C)(OC)[C@H](OC1O[C@H](C)C[C@H](N(C)C)[C@H]1O)[C@@H](C)C(=O)[C@@H](C)C(=O)O[C@@H]2CC (some centres unmarked)
=0.05

Please list MIC recorded for the molecule CC[C@H]1OC(=O)[C@H](C)C(=O)[C@H](C)[C@@H](OC2O[C@H](C)C[C@H](N(C)C)[C@H]2O)[C@@](C)(OC)C[C@@H](C)C(=O)[C@H](C)[C@H]2N(CCCCn3cnc(-c4ccc(Cl)nc4)c3)C(=O)O[C@]12CC (some centres unmarked)
=0.05

Please list MIC recorded for the molecule CC[C@H]1OC(=O)[C@@](C)(F)C(=O)[C@H](C)[C@@H](OC2O[C@H](C)C[C@H](N(C)C)[C@H]2O)[C@@](C)(OC)C[C@@H](C)C(=O)[C@H](C)[C@H]2N(CCCCn3cnc(-c4ccc(C)nc4)c3)C(=O)O[C@]12CC (some centres unmarked)
=0.05

Please list MIC recorded for the molecule C=C[C@]12OC(=O)N(CCCCn3cnc(-c4ccc(OC)nc4)c3)[C@@H]1[C@@H](C)C(=O)[C@H](C)C[C@](C)(OC)[C@H](OC1O[C@H](C)C[C@H](N(C)C)[C@H]1O)[C@@H](C)C(=O)[C@@H](C)C(=O)O[C@@H]2CC (some centres unmarked)
=0.05

Please list MIC recorded for the molecule CC[C@H]1OC(=O)[C@H](C)C(=O)[C@H](C)[C@@H](O[C@@H]2O[C@H](C)C[C@H](N(C)C)[C@H]2O)[C@](C)(OC)C[C@@H](C)C(=O)[C@H](C)[C@H]2N(CCCCn3cnc(-c4cccnc4)c3)C(=O)O[C@]12C [Telithromycin, telithromycin, reference compound]
=0.05
